Where these numbers come from: patent US12692247B2

molecular target: Recombinant human DDR2 (Homo sapiens); construct: DDR2 (1.75 nM; aa427-855 containing a GST tag); assay: LanthaScreen Eu Kinase Binding Assay, DDR2; conditions: recombinant human DDR2 (1.75 nM; aa427-855, GST tag), Kinase Tracer 178 10 nM, time-resolved fluorescence, at least two independent replicates; read-out: DDR2 pIC50 (converted)
reported metric: IC50

[[record]]
compound = "Cn1ccc(NC(=O)Cn2ccc3cccc(Nc4ccc5c(cnn5C)c4)c3c2=O)n1 [Example 34]"
result = "≥ 1000 nM"


[Q] Given the entry C[C@@H](NC(=O)Cn1ccc2cccc(Nc3ccc4c(cnn4C)c3)c2c1=O)C(F)(F)F [Example 20] , report its measured IC50.
[A] 100 to 1000 nM

[Q] What about this compound? CN(CC(F)(F)F)C(=O)Cn1ccc2cccc(Nc3ccc4c(cnn4C)c3)c2c1=O [Example 23]
[A] 100 to 1000 nM

[Q] Note, next up: Cc1noc(C)c1NC(=O)Cn1ccc2cccc(Nc3ccc4c(cnn4C)c3)c2c1=O [Example 69]
[A] 100 to 1000 nM

[Q] Request: Cn1ncc2cc(Nc3cccc4ccn(CC(=O)NC(CO)C(F)(F)F)c(=O)c34)ccc21 (centres unmarked) [Example 50]
[A] ≥ 1000 nM

[Q] Can you handle Cn1ncc2cc(Nc3cccc4ccn(CC(=O)NC(c5ccccc5)C(F)(F)F)c(=O)c34)ccc21 (centres unmarked) [Example 35] next?
[A] 100 to 1000 nM

====

target: Recombinant human DDR1 (Homo sapiens, UniProt Q08345); construct: Recombinant human DDR1 (2.5 nM; aa440-876 containing a GST tag); assay: LanthaScreen Eu Kinase Binding Assay, DDR1; details: recombinant human DDR1 (2.5 nM; aa440-876, GST tag), Kinase Tracer 178 5 nM, time-resolved fluorescence, at least two independent replicates; read-out: DDR1 pIC50 (converted)
Sequence (Q08345 440-876 isoform Q08345-2): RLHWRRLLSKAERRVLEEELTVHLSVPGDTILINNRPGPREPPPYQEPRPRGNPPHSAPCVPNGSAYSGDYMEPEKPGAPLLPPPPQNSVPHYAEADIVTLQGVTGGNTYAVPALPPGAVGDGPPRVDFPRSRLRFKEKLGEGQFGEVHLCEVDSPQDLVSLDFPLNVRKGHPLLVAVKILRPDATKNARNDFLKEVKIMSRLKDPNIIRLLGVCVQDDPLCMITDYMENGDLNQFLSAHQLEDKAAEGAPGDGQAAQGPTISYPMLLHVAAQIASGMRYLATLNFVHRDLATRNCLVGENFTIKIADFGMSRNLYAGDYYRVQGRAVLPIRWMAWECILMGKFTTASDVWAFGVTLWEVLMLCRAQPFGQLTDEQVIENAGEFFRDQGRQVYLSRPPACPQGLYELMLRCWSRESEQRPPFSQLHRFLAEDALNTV
Each record here notes measured IC50.

Some solved cases for reference:
[[record]]
compound = "O=C(Cn1ccc2cccc(Nc3cc(Cl)c4[nH]ncc4c3)c2c1=O)NCC(F)(F)F [Example 52]"
result = "< 0.01 µM"

[[record]]
compound = "Cn1ncc2cc(Nc3cccc4ccn(CC(=O)N5CCC[C@H]5CF)c(=O)c34)ccc21 [Example 136]"
result = "< 0.01 µM"


[Q] Quick check: IC50 of CC(C(=O)NCC(F)(F)F)n1ccc2cccc(Nc3ccc4c(cnn4C)c3)c2c1=O (centres unmarked) [Example 51] ?
[A] ≥ 1 µM

[Q] Do the same for Cn1ncc2cc(Nc3cccc4ccn(CC(=O)Nc5ccncc5)c(=O)c34)ccc21 [Example 26] please
[A] ≥ 1 µM

[Q] What do we get for Cn1nccc1NC(=O)Cn1ccc2cccc(Nc3ccc4c(cnn4C)c3)c2c1=O [Example 36] ?
[A] 0.01 to 0.1 µM

[Q] Try this compound next: CC(C)[C@H](NC(=O)Cn1ccc2cccc(Nc3ccc4c(cnn4C)c3)c2c1=O)C(F)(F)F [Example 46]
[A] 0.01 to 0.1 µM

[Q] Now consider Cn1ncc2cc(Nc3cccc4ccn(CC(=O)NCC(F)F)c(=O)c34)ccc21 [Example 10] and answer again.
[A] 0.01 to 0.1 µM

[Q] Also CC(=O)c1cccc(NC(=O)Cn2ccc3cccc(Nc4ccc5c(cnn5C)c4)c3c2=O)c1 [Example 32] , if possible.
[A] < 0.01 µM

[Q] What about Cn1ncc2cc(Nc3cccc4ccn(CC(=O)NC(C5CC5)C(F)(F)F)c(=O)c34)ccc21 (centres unmarked) [Example 33] ?
[A] 0.01 to 0.1 µM

[Q] Further, for Cn1ncc2cc(Nc3cccc4ccn(CC(=O)N5CCC[C@H]5C(F)(F)F)c(=O)c34)cnc21 [Example 78] ?
[A] 0.01 to 0.1 µM

[Q] Repeat with CC[C@H](NC(=O)Cn1ccc2cccc(Nc3ccc4c(cnn4C)c3)c2c1=O)C(F)(F)F [Example 45]
[A] 0.01 to 0.1 µM

[Q] Now try C[C@H](NC(=O)Cn1ccc2cccc(Nc3ccc4c(cnn4C)c3)c2c1=O)C(F)(F)F [Example 19] .
[A] < 0.01 µM

[Q] Can you check Cn1ncc2cc(Nc3cccc4ccn(CC(=O)Nc5cnco5)c(=O)c34)ccc21 [Example 95] next?
[A] 0.01 to 0.1 µM

[Q] Moving on to Cn1ncc2cc(Nc3cccc4ccn(CC(=O)Nc5cnoc5)c(=O)c34)cnc21 [Example 101]
[A] 0.01 to 0.1 µM

[Q] And the next one, Cn1ncc2cc(Nc3cccc4ccn(CC(=O)Nc5ccon5)c(=O)c34)ccc21 [Example 74] ?
[A] 0.01 to 0.1 µM

[Q] What about Cc1ccc(Nc2ccc3c(cnn3C)c2)c2c(=O)n(CC(=O)NCC(F)(F)F)ccc12 [Example 8] ?
[A] ≥ 1 µM

[Q] Same again, this time with Cn1ncc2cc(Nc3cc(F)cc4ccn(CC(=O)NCC(F)(F)F)c(=O)c34)ccc21 [Example 47]
[A] 0.1 to 1 µM

====

target: Recombinant human DDR1 (Homo sapiens); construct: Recombinant human DDR1 (2.5 nM; aa440-876 containing a GST tag); test: LanthaScreen Eu Kinase Binding Assay, DDR1; conditions: recombinant human DDR1 (2.5 nM; aa440-876, GST tag), Kinase Tracer 178 5 nM, time-resolved fluorescence, at least two independent replicates; read-out: DDR1 pIC50 (converted)
Quick reference for IC50 among some molecules

[[record]]
molecule = "Cn1ncc2cc(Nc3cccc4ccn(CC(=O)NCCC(F)(F)F)c(=O)c34)ccc21"
reported_metric = "IC50"
result = "100 to 1000 nM"

[[record]]
molecule = "CN1CCN(Cc2ccc(NC(=O)Cn3ccc4cccc(Nc5ccc6c(cnn6C)c5)c4c3=O)cc2C(F)(F)F)CC1"
reported_metric = "IC50"
result = "10 to 100 nM"


[Q] Reported IC50, molecule "CN(c1ccc2c(cnn2C)c1)c1cccc2ccn(CC(=O)NCC(F)(F)F)c(=O)c12" : ____
[A] 10 to 100 nM

[Q] Follow-up entry: "Cn1ncc2cc(Nc3cccc4ccn(CC(=O)N[C@@H](C5CC5)C(F)(F)F)c(=O)c34)ccc21"
[A] < 10 nM

[Q] # iterate: Cn1ncc2cc(Nc3cccc4ccn(CC(=O)NC(CO)C(F)(F)F)c(=O)c34)ccc21 (centres unmarked)
[A] ≥ 1000 nM

[Q] Please do the same for "CN1CCC(NC(=O)Cn2ccc3cccc(Nc4ccc5c(cnn5C)c4)c3c2=O)CC1" as well.
[A] ≥ 1000 nM

[Q] How about this molecule: Cn1ncc2cc(Nc3cccc4ccn(CC(=O)N5CCOCC5C(F)(F)F)c(=O)c34)ccc21 (centres unmarked)
[A] 10 to 100 nM

[Q] Repeat with "Cn1ncc2cc(Nc3cccc4ccn(CC(=O)Nc5ccccc5)c(=O)c34)ccc21"
[A] 10 to 100 nM

====

Let's look at some molecules and their measured IC50.
target: Recombinant human DDR1 (Homo sapiens, UniProt Q08345); construct: Recombinant human DDR1 (2.5 nM; aa440-876 containing a GST tag); test: LanthaScreen Eu Kinase Binding Assay, DDR1; details: recombinant human DDR1 (2.5 nM; aa440-876, GST tag), Kinase Tracer 178 5 nM, time-resolved fluorescence, at least two independent replicates; read-out: DDR1 pIC50 (converted)

[[record]]
molecule = "Cn1ncc2cc(Nc3cccc4ccn(CC(=O)NC(c5ccccc5)C(F)(F)F)c(=O)c34)ccc21 (stereo not shown) [Example 35]"
result = "0.01 to 0.1 µM"

[[record]]
molecule = "Cn1ccnc1NC(=O)Cn1ccc2cccc(Nc3ccc4c(cnn4C)c3)c2c1=O [Example 77]"
result = "≥ 1 µM"

[[record]]
molecule = "CN(C)Cc1cc(NC(=O)Cn2ccc3cccc(Nc4ccc5c(cnn5C)c4)c3c2=O)cc(C(F)(F)F)c1 [Example 154]"
result = "< 0.01 µM"


[Q] I have this molecule here, Cc1n[nH]c2cc(Nc3cccc4ccn(CC(=O)Nc5cnoc5)c(=O)c34)ccc12 [Example 158] , and I need its recorded IC50.
[A] 0.01 to 0.1 µM

====

target: Recombinant human DDR2 (Homo sapiens, UniProt Q16832); construct: DDR2 (1.75 nM; aa427-855 containing a GST tag); assay: LanthaScreen Eu Kinase Binding Assay, DDR2; settings: recombinant human DDR2 (1.75 nM; aa427-855, GST tag), Kinase Tracer 178 10 nM, time-resolved fluorescence, at least two independent replicates; read-out: DDR2 pIC50 (converted)
Sequence (Q16832 427-855): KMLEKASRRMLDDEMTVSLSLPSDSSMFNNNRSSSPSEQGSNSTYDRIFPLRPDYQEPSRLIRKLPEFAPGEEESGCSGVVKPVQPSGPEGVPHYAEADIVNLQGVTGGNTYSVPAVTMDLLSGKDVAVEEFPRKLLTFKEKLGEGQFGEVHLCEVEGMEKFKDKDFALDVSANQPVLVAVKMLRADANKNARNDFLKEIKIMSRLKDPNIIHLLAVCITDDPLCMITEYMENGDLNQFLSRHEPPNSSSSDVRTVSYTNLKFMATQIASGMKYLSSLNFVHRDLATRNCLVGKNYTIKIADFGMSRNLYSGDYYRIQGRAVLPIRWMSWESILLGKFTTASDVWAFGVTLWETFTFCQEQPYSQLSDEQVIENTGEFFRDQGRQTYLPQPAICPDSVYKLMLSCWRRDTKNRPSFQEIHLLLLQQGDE
reported metric: IC50

Here are 3 compounds together with their reported answers.
[[record]]
compound = "Cn1cc(NC(=O)Cn2ccc3cccc(Nc4ccc5c(cnn5C)c4)c3c2=O)cn1 [Example 41]"
result = "≥ 1 µM"

[[record]]
compound = "Cn1ncc2cc(Nc3cccc4ccn(CC(=O)N5CCOCC5C(F)(F)F)c(=O)c34)ccc21 (stereo not shown) [Example 87]"
result = "0.1 to 1 µM"

[[record]]
compound = "Cn1ncc2cc(Nc3cccc4ccn(CC(=O)NCC(F)F)c(=O)c34)ccc21 [Example 10]"
result = "0.1 to 1 µM"


[Q] Identify the measured IC50 of Cn1ncc2cc(Nc3cccc4ccn(CC(=O)Nc5cc(C(F)(F)F)no5)c(=O)c34)ccc21 [Example 48] for Recombinant human DDR2 (Homo sapiens, UniProt Q16832).
[A] 0.01 to 0.1 µM

[Q] Same thing, different compound: CC(=O)C1CCN(C(=O)Cn2ccc3cccc(Nc4ccc5c(cnn5C)c4)c3c2=O)CC1 [Example 80]
[A] ≥ 1 µM

[Q] Follow-up item: Cn1ncc2cc(Nc3cccc4ccn(CC(=O)NCC56CCCN5CCC6)c(=O)c34)ccc21 [Example 138]
[A] ≥ 1 µM

[Q] Follow-up item: C[C@H](NC(=O)Cn1ccc2cccc(N(C)c3ccc4c(cnn4C)c3)c2c1=O)C(F)(F)F [Example 143]
[A] 0.1 to 1 µM

[Q] What do you have for Cc1ccc(Nc2ccc3c(cnn3C)c2)c2c(=O)n(CC(=O)NCC(F)(F)F)ccc12 [Example 8] ?
[A] ≥ 1 µM

[Q] Proceed to Cn1ncc2cc(Nc3cccc4ccn(CC(=O)NC5(C(F)(F)F)CCCC5)c(=O)c34)ccc21 [Example 42]
[A] 0.1 to 1 µM

[Q] What do we get for Cn1cnc(NC(=O)Cn2ccc3cccc(Nc4ccc5c(cnn5C)c4)c3c2=O)c1 [Example 81] ?
[A] ≥ 1 µM

[Q] Also check Cn1ncc2cc(Nc3cccc4ccn(CC(=O)Nc5ccc(C(F)(F)F)cc5)c(=O)c34)ccc21 [Example 30]
[A] ≥ 1 µM

[Q] What about COC(=O)C1CCN(C(=O)Cn2ccc3cccc(Nc4ccc5c(cnn5C)c4)c3c2=O)C1 (stereo not shown) [Example 73] ?
[A] ≥ 1 µM

[Q] Now give it for CN1CCN(C(=O)Cn2ccc3cccc(Nc4ccc5c(cnn5C)c4)c3c2=O)CC1 [Example 13] too.
[A] ≥ 1 µM

[Q] Subsequent entry: Cn1ncc2cc(Nc3cccc4ccn(CC(=O)NC5CCOCC5)c(=O)c34)ccc21 [Example 15]
[A] ≥ 1 µM

[Q] Same lookup for Cn1ncc2cc(Nc3cccc4ccn(CC(=O)Nc5cnoc5)c(=O)c34)cnc21 [Example 101] , please.
[A] 0.1 to 1 µM

[Q] Same again, this time with Cn1ncc2cc(Nc3cccc4ccn(CC(=O)N5CCC[C@H]5C(F)(F)F)c(=O)c34)ccc21 [Example 49]
[A] 0.01 to 0.1 µM
